- target.or.system: JNK1-dc20 (JNK1 with the C-terminal 20 residues truncated) (human) (UniProt P45983)
- test: fluorescence polarisation; competitive: 50 nM CF-evJIP with JNK1 at ~60–80% complex, titrated with unlabeled competitor; 20 mM Tris pH 8.0, 100 mM NaCl, 0.05% Brij35P, 2 mM TCEP; 384-well plates
readout: Kd (µM)
A number alone suffices; assume µM.

So, MSDDKPFLCTAPGCGQRFTNEDHLAVHKHKHEMTLKFGPA (domain or fragment) [ATF2(19–58) as used in the competitive fluorescence polarisation assay] ? Its Kd was 5
